tested_on: Peroxisome proliferator-activated receptor delta (Homo sapiens)
test: qHTS assay to identify small molecule agonists of the peroxisome proliferator-activated receptor delta (PPARd) signaling pathway (AID 743212);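 also: HEK293H cells with PPARd UAS beta-lactamase reporter GeneBLAzer system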
cond: HEK293H PPARd-UAS-bla, beta-lactamase FRET ratio, 17 h; series mostly up to 62.6 µM
Results filed as inconclusive are left out. Active and inactive are the calls of the source. Calls follow the shape of the full dose curve.
Hello, when you answer, please use one of the following outcomes: active, inactive

Previously resolved entries follow.
1. COC(=O)c1cc(Oc2ccc(Cl)cc2Cl)ccc1[N+](=O)[O-]
inactive
2. Cc1ccc(C)c2ccccc12
inactive
3. CSC1=N[C@@](C)(c2ccccc2)C(=O)N1Nc1ccccc1
inactive
4. CCN(CC)CCN1C(=O)CN=C(c2ccccc2F)c2cc(Cl)ccc21
inactive
5. CN=C=O
inactive

Moving on to another compound below.
Hey, what did the test say about OCC(Br)CBr (stereo not drawn) ?
inactive

Reference for the values: PubChem BioAssay (Tox21)
